Target: CDK6-CYCLIND3 (Homo sapiens, UniProt Q00534)
Construct: purchased Carna
Sequence (Q00534 whole entry): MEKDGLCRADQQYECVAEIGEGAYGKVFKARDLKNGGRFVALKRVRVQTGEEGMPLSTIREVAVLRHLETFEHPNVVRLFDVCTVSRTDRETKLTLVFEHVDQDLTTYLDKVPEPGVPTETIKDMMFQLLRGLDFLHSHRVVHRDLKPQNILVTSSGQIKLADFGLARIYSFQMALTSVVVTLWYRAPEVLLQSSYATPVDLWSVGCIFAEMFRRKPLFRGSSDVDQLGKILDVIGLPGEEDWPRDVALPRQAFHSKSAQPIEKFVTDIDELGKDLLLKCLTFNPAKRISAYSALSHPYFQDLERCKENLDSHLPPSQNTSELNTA
Sequence (P30281 whole entry partner): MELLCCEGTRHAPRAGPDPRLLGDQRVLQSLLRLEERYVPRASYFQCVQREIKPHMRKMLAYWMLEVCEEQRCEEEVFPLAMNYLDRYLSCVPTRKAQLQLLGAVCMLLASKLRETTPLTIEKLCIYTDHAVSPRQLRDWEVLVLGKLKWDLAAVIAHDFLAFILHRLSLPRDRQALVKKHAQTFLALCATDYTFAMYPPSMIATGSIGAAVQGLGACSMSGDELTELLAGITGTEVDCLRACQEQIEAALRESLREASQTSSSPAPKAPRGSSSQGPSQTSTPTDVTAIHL
Experiment: CDK inhibition assay (microfluidic LabChip, IC50 format)
Assay type: biochemical
Details: Table 4b, lower part; read-out: CDK6 CyclinD3 IC50
pIC50: −log10 of the molar value.
reportedMetric: pIC50

Would you please look over these solved cases?
Enquiry: Please report the recorded pIC50 for O=C1NCC[C@]12Cc1cnc(Nc3ccc(N4CCNCC4)c(F)c3)nc1N(C13CC(C1)C3)C2=O [Example D196] .
Return: 5.62

Enquiry: // same read-out, input: O=C1NCC[C@@]12Cc1cnc(Nc3ccc(N4CCNCC4)c(F)c3)nc1N(C13CC(C1)C3)C2=O [Example D184]
Return: 7.36

Enquiry: How about O=C1NCC[C@@]12Cc1cnc(Nc3ccc(OCCN4CCCC4)nc3)nc1N(C1CCCC1)C2=O [Example D191] ?
Return: 7.95

a: CC(C)N1CCN(c2ccc(Nc3ncc4c(n3)N(C35CC(C3)C5)C(=O)[C@]3(CCNC3=O)C4)nc2)CC1 [Example D189]
b: CC(C)n1cc(-c2ccc(Nc3ncc4c(n3)N(C3CCCC3)C(=O)[C@]3(CCNC3=O)C4)cc2)cn1 [Example D195]
c: CN1CCN(c2ccc(Nc3ncc4c(n3)N(C35CC(C3)C5)C(=O)C3(CCNC3=O)C4)cc2F)CC1 (stereo not drawn) [Example D183]
d: O=C1NCC[C@@]12Cc1cnc(N3CC4(CNC4)C3)nc1N(C1CCCC1)C2=O [Example D198]
Enquiry: Rank entries according to their pIC50, from the largest number down. Write the labels in rank order as requested.
Return: b, c, d, a
(b: 7.47, c: 7.18, d: 4.79, a: 4.38)

P: O=C1NCC[C@@]12Cc1cnc(Nc3ccc(OCCN4CCCCC4)nc3)nc1N(C1CCCC1)C2=O [Example D192]
Q: CC(C)N1CCN(c2ccc(Nc3ncc4c(n3)N(C35CC(C3)C5)C(=O)[C@]3(CCNC3=O)C4)cc2F)CC1 [Example D194]
Enquiry: When P and Q are compared, which has the higher number for pIC50? Respond with the label that goes with your answer.
Return: P
(P: 8.07, Q: 7.51)

I: CN1CCN(c2ccc(Nc3ncc4c(n3)N(C35CC(C3)C5)C(=O)[C@]3(CCNC3=O)C4)cc2F)CC1 [Example D185]
II: CCN1CCN(Cc2ccc(Nc3ncc4c(n3)N(C35CC(C3)C5)C(=O)[C@]3(CCNC3=O)C4)nc2)CC1 [Example D190]
Enquiry: Could you kindly indicate whether I or II has the higher pIC50 value? Select an item and report its label.
Return: I
(I: 7.51, II: 4.47)

----------
Molecular target: CDK2-CYCLINA (Homo sapiens, UniProt P24941)
Construct: purchased Millipore
Test: CDK inhibition assay (microfluidic LabChip, IC50 format)
Assay type: biochemical
Conditions: Table 4b, lower part; read-out: CDK2 CyclinA IC50
reportedMetric: IC50 (nM)

Some solved cases for reference:
Enquiry: Entry CN1CCN(c2ccc(Nc3ncc4c(n3)N(C35CC(C3)C5)C(=O)[C@]3(CCNC3=O)C4)cc2)CC1 : reported IC50 = ?
Return: 1490

Enquiry: Next up: O=C1NCC[C@@]12Cc1cnc(Nc3ccc(N4CCN(C5CC5)CC4)cc3)nc1N(C1CCCC1)C2=O
Return: 40.4

Enquiry: Entry O=C1NCC[C@@]12Cc1cnc(Nc3ccc(N4CCNCC4)c(F)c3)nc1N(C13CC(C1)C3)C2=O please
Return: 1400

Enquiry: Please answer likewise for CC(C)N1CC2(CN(c3ccc(Nc4ncc5c(n4)N(C4CCCC4)C(=O)[C@]4(CCNC4=O)C5)cc3)C2)C1
Return: 126

Enquiry: Similarly, CN1CCN(c2ccc(Nc3ncc4c(n3)N(C35CC(C3)C5)C(=O)[C@]3(CCNC3=O)C4)cc2F)CC1 ?
Return: 1060

A: O=C1NCC[C@@]12Cc1cnc(Nc3ccc(N4CCN(CCO)CC4)c(F)c3)nc1N(C13CC(C1)C3)C2=O
B: CC(C)c1ccc(Nc2ncc3c(n2)N(C2CCCC2)C(=O)[C@]2(CCNC2=O)C3)cc1
C: CC1CN(c2ccc(Nc3ncc4c(n3)N(C35CC(C3)C5)C(=O)[C@]3(CCNC3=O)C4)cc2)CC(C)N1 (stereo partly drawn)
D: O=C1NCC[C@@]12Cc1cnc(Nc3ccc(N4CCN(CCO)CC4)c(F)c3)nc1N(C1CCCC1)C2=O
Enquiry: Rank order required: IC50, descending. // respond by listing labels in the order requested
Return: C, A, B, D

1: C[C@]1(O)CC[C@@H](Nc2ncc3c(n2)N(C2CCCC2)C(=O)[C@]2(CCNC2=O)C3)CC1
2: CN1CCN(c2ccc(Nc3ncc4c(n3)N(C35CC(C3)C5)C(=O)C3(CCNC3=O)C4)cc2F)CC1 (stereo not drawn)
Enquiry: 1 or 2 : whose IC50 is greater? Your answer should be the label attached to the chosen record.
Return: 2
(2: 2430 nM, 1: 803 nM)

----------
Tested on: OVXF SK-OV-3
Assay: 2D cell proliferation assay (CellTiter-Blue)
Format: cell-based
Details: Homo sapiens, 72 h, three days of treatment, read-out: abs. IC50
reportedMetric: IC50 (µM)

Enquiry: Which IC50 is reported for this compound? CN(C)[C@H]1CCN(c2ccc(Nc3ncc4c(n3)N(C3CCCC3)C(=O)[C@]3(CCNC3=O)C4)nc2)C1 [Example D178]
Return: 76.7

1: CC(C)N1CCN(c2ccc(Nc3ncc4c(n3)N(C3CCCC3)C(=O)[C@]3(CCNC3=O)C4)nc2)CC1 [Example D154]
2: CN(C)CCOc1ccc(Nc2ncc3c(n2)N(C2CCCC2)C(=O)[C@]2(CCNC2=O)C3)cc1 [Example D179]
3: O=C1NCC[C@@]12Cc1cnc(Nc3ccc(N4CCNCC4)cc3F)nc1N(C1CCCC1)C2=O [Example D146]
Enquiry: Ascending sort, IC50. Put the labels in the requested order and list them out.
Return: 2, 3, 1

----------
Target: CDK9-CYCLINT1 (Homo sapiens, UniProt P50750)
Construct: purchased Carna
Sequence (P50750 whole entry): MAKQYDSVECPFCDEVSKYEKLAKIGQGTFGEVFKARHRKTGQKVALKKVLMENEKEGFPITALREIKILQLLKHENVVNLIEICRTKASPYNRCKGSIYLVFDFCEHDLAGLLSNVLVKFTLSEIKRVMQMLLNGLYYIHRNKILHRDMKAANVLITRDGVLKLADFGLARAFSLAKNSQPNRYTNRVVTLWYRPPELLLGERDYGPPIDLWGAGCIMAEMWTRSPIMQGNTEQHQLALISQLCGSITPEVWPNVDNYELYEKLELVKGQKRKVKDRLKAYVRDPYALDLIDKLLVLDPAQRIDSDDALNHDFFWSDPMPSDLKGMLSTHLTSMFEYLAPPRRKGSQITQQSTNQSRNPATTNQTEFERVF
Sequence (O60563 whole entry partner): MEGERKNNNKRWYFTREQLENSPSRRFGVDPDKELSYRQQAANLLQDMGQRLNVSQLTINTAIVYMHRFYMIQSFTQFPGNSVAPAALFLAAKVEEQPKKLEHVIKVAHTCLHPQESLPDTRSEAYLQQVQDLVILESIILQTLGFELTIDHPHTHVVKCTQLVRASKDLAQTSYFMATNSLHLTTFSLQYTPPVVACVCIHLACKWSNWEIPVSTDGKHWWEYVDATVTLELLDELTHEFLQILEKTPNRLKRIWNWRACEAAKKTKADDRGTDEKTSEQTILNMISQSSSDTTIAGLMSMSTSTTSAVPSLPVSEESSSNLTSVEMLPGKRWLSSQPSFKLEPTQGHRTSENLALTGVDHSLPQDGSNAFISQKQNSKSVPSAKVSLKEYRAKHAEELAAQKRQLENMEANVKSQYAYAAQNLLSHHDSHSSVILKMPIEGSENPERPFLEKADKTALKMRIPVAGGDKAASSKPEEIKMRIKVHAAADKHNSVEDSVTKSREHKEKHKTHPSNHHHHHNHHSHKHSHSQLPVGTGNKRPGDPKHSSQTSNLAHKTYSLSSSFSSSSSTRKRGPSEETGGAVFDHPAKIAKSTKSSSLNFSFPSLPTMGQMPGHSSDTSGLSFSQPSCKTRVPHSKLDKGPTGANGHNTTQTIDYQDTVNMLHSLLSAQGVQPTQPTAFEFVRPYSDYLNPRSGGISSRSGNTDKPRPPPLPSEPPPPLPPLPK
Assay: CDK inhibition assay (microfluidic LabChip, IC50 format)
Type: biochemical
Conditions: Table 4a; read-out: CDK9 CyclinT1 IC50
pIC50: −log10 of the molar value.
reportedMetric: pIC50

Enquiry: What value of pIC50 has been reported for the following compound? COc1cc(Nc2ncc3c(n2)N(C2CCCC2)C(=O)[C@]2(CCNC2=O)C3)ccc1N1CCN(C(C)C)CC1 [Example D161]
Return: 8.14

Enquiry: Now consider CN(C)CCOc1ccc(Nc2ncc3c(n2)N(C2CCCC2)C(=O)[C@]2(CCNC2=O)C3)nc1 [Example D138] and answer again.
Return: 6.69

Enquiry: Please do the same for COc1cc(Nc2ncc3c(n2)N(C2CCCC2)C(=O)[C@]2(CCNC2=O)C3)ccc1N1CCNCC1 [Example D159] as well.
Return: 8.13

Enquiry: Then Cc1cc(Nc2ncc3c(n2)N(C2CCCC2)C(=O)[C@]2(CCNC2=O)C3)ccc1N1CCNCC1 [Example D156] ?
Return: 8.41

Enquiry: Entry COc1cc(N2CCNCC2)ccc1Nc1ncc2c(n1)N(C1CCCC1)C(=O)[C@]1(CCNC1=O)C2 [Example D165] please
Return: 6.63

P: COc1cc(Nc2ncc3c(n2)N(C2CCCC2)C(=O)[C@]2(CCNC2=O)C3)ccc1N1CCN(C)CC1 [Example D160]
Q: CN(C)[C@H]1CCN(C(=O)c2ccc(Nc3ncc4c(n3)N(C3CCCC3)C(=O)[C@]3(CCNC3=O)C4)cc2)C1 [Example D177]
R: CN1CCN(c2ccc(Nc3ncc4c(n3)N(C3CCCC3)C(=O)[C@]3(CCNC3=O)C4)c(F)c2)CC1 [Example D147]
Enquiry: Could you please order the items by pIC50, going from the lowest number to the highest? Please list each label once, in the requested order.
Return: R, Q, P

A: CN(C)[C@H]1CCN(c2ccc(Nc3ncc4c(n3)N(C3CCCC3)C(=O)[C@]3(CCNC3=O)C4)nc2)C1 [Example D178]
B: CC(C)N1CC2(CN(c3ccc(Nc4ncc5c(n4)N(C4CCCC4)C(=O)[C@]4(CCNC4=O)C5)nc3)C2)C1 [Example D171]
Enquiry: When the recorded pIC50 values are compared, which is smaller: that of A or that of B ? When you have decided, please share the label of that item.
Return: B
(B: 6.57, A: 8.37)

----------
Tested on: CXF HCT-15
Experiment: 2D cell proliferation assay (CellTiter-Blue)
Assay type: cell-based
Settings: Homo sapiens, 72 h, three days of treatment, read-out: abs. IC50
reportedMetric: IC50 (µM)

Use the examples below as a reference point.
Enquiry: Fill in: IC50 of CC(C)N1CCN(c2ccc(Nc3ncc4c(n3)N(C3CCCC3)C(=O)[C@]3(CCNC3=O)C4)nc2)CC1 [Example D154] is ___
Return: 22.1

Enquiry: Another molecule to look at: CN(C)CCOc1ccc(Nc2ncc3c(n2)N(C2CCCC2)C(=O)[C@]2(CCNC2=O)C3)cc1 [Example D179]
Return: 1.41

1: O=C1NCC[C@@]12Cc1cnc(Nc3ccc(N4CCNCC4)cc3F)nc1N(C1CCCC1)C2=O [Example D146]
2: CN(C)[C@H]1CCN(c2ccc(Nc3ncc4c(n3)N(C3CCCC3)C(=O)[C@]3(CCNC3=O)C4)nc2)C1 [Example D178]
Enquiry: Compare 1 and 2 by numeric IC50 and name the larger one. Answer with the label corresponding to your selection.
Return: 2
